target-under-test: T1, kpRstA DBD (Klebsiella pneumoniae, UniProt A6T8N1 130-236)
T1 sequence: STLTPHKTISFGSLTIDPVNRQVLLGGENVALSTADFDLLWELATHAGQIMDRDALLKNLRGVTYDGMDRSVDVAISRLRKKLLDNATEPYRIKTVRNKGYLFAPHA
assay-details: ITC; one-site model, N = 1.05 (text gives error 0.54); ITC 25 C: 20 mM Tris pH 7.5, 100 mM NaCl (DBD); plus 7 mM MgCl2 with or without 5.3 mM BeSO4 and 35 mM NaF (full-length). NMR of complex: 20 mM Na phosphate pH
experimental-context: protein: recombinant; tags: N-terminal M-6H-AMG; chain copies: 2
measurement-kind: Kd (µM)

> print(dat)
                                     binder  unit.text  reported.measurement
1  DNA-16a (dsDNA) DNA 1: ACGTTGTACATTCCGT DNA 2: ACGGAATGTACAACGT         µM                  8.17
